Assay: NCI Yeast Anticancer Drug Screen. Data for the rad50 strain (AID 155);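 also: 0% = growth of vehicle-only cultures of the same strain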
Settings: S. cerevisiae rad50 strain growth inhibition; at 5.0 µM (retest, dose inferred, filed as 0.5); active compounds read high
This is part of a sample that, as a whole, favours compounds with a hit. Of some 79,000 tested, about 15% had one in any assay.
We use 80% as the dividing line for growth inhibition: on or above the line is condition met, below is condition not met.

Here's what some known entries look like.
{"COMPOUND": "COC(=O)CC1(C(=O)O)CC2(Cl)C(Cl)=C(Cl)C1(Cl)C2(Cl)Cl (configuration not stated)", "CLASS NAME": "condition not met"}
{"COMPOUND": "C1CC[N-]CC1.[Cl][Au]([Cl])[Cl]", "CLASS NAME": "condition not met"}
{"COMPOUND": "OC(c1ccc(Br)cc1)C(Cl)(Cl)Cl (configuration not stated)", "CLASS NAME": "condition not met"}
{"COMPOUND": "CC(Cl)CNC(C)C (configuration not stated)", "CLASS NAME": "condition not met"}
{"COMPOUND": "Cc1cccc(OCC(O)CN2CC2)c1 (configuration not stated)", "CLASS NAME": "condition not met"}
{"COMPOUND": "CCC(C)c1cc([N+](=O)[O-])cc([N+](=O)[O-])c1O (configuration not stated)", "CLASS NAME": "condition not met"}
{"COMPOUND": "CC(Cc1ccccc1)[N+](=O)[O-] (configuration not stated)", "CLASS NAME": "condition not met"}
{"COMPOUND": "COC1CC2C(C[CH]1[Hg][Cl])C2(Cl)Cl (configuration not stated)", "CLASS NAME": "condition met"}
{"COMPOUND": "OC1CCCC[CH]1[Hg][Cl] (configuration not stated)", "CLASS NAME": "condition met"}
{"COMPOUND": "COC1OC(COC(C)=O)C(OC(C)=O)C(OC(C)=O)[C]1(OC(C)=O)[Hg][O]C(C)=O (configuration not stated)", "CLASS NAME": "condition met"}

Could you now look at the following compound, please?
Form field: growth inhibition at least 80%? Entry: CCc1ccc([O-])c(C=NCCCN(C)CCCN=Cc2cc(C)ccc2[O-])c1.[Co+3].[N-]=[N+]=[N-]
condition not met

====

Test: NCI Yeast Anticancer Drug Screen. Data for the bub3 strain (AID 167)
Details: S. cerevisiae bub3 mutant strain, at 50.0 µM (retest, dose inferred, filed as 5.0)
Compounds without any hit were thinned out: in the full panel of roughly 79,000, 15% have a hit. Active and inactive are the calls of the source. No stated cut-off is given here; in the data, active means growth inhibition above about 70%; inactive means the rest.
Classes to choose from: true (active), false (inactive)

{"COMPOUND": "CC(=O)[O-].O=C([CH-]C(=O)c1ccccc1)c1ccccc1.O=C([CH-]C(=O)c1ccccc1)c1ccccc1.[Sm+3]", "CLASS NAME": "false"}
{"COMPOUND": "C=C1C(C)C2C(Cc3ccccc3)NC(=O)C23C(OC(C)=O)C=CC(C)(O)C(=O)C(C)C/C=C/C3C1O (stereo not given)", "CLASS NAME": "true"}
{"COMPOUND": "NC(N)=N/N=C1\\C(=O)N(c2ccc(Cl)cc2)C(=O)C1C(=O)Nc1ccc(Cl)cc1 (stereo not given)", "CLASS NAME": "false"}
{"COMPOUND": "[Cl][Hg][CH2]CC1CC=CCC1 (stereo not given)", "CLASS NAME": "true"}
{"COMPOUND": "CC1CCS(=O)(=O)CC1.[Cl][Hg][Cl]", "CLASS NAME": "true"}
{"COMPOUND": "CCCCCCCCCCCCCCCC[N+](C)(C)CCBr", "CLASS NAME": "true"}
{"COMPOUND": "COc1cc(C(=O)CCN(CCCl)CCCl)cc(OC)c1OC", "CLASS NAME": "true"}
{"COMPOUND": "O=C(Nc1ccccc1)c1cc([N+](=O)[O-])ccc1O", "CLASS NAME": "true"}
{"COMPOUND": "Cc1cc(-c2ccccc2)cc(C)[n+]1[O-]", "CLASS NAME": "false"}
{"COMPOUND": "C[n+]1[se]nc2cc(C(=O)c3ccccc3)ccc21 (tested in a mixture with another compound)", "CLASS NAME": "true"}

Dear all, I need the recorded test outcome for CCOP(=S)(OCC)SC(O)(C(F)F)C(F)F , thank you.
false

Test call, this compound: CCC1(O)C(=O)OCc2c1cc1n(c2=O)Cc2cc3cc([N+](=O)[O-])ccc3nc2-1 (stereo not given)
false

Answer briefly: the call reported for ClCCN(CCCl)c1ccc(CN2CCCN(Cc3ccc(N(CCCl)CCCl)cc3Cl)C2c2ccncc2)c(Cl)c1 in this assay.
true

====

Experiment: NCI Yeast Anticancer Drug Screen. Data for the bub3 strain (AID 167)
Conditions: S. cerevisiae bub3 mutant strain, at 5.0 µM (retest, dose inferred, filed as 0.5), active compounds read high
The panel holds about 79,000 compounds, 15% with a hit somewhere; the sample as a whole holds those more often.
Measured growth inhibition, listed per entry for reference.
Write down the numeric answer in % and omit the unit.

Some solved entries appear below for comparison.
{"COMPOUND": "Cc1cc(N(CCCl)CCCl)ccc1CN1CCCN(Cc2ccc(N(CCCl)CCCl)cc2C)C1c1ccc(N(CCCl)CCCl)cc1C", "READING UNIT": "%", "growth inhibition": 7}
{"COMPOUND": "CC[C@@]1(O)C[C@H](OC2CC(N)C(O)C(C)O2)c2c(O)c3c(c(O)c2[C@H]1C(=O)OC)C(=O)c1cccc(O)c1C3=O (some centres undefined)", "READING UNIT": "%", "growth inhibition": 52}
{"COMPOUND": "CCOc1c(Br)cc(/C=C/[N+](=O)[O-])cc1OC", "READING UNIT": "%", "growth inhibition": 61}
{"COMPOUND": "C/C(=N\\O)C(CN(C)C)C(c1ccccc1)c1c(O)c2ccccc2oc1=O (centres undefined)", "READING UNIT": "%", "growth inhibition": 12}
{"COMPOUND": "CCCCCCCCCCCCCCCc1cccc(O)c1O", "READING UNIT": "%", "growth inhibition": 1}

What the record says about c1cc[c]([Sn]([c]2ccccc2)([c]2ccccc2)[c]2ccccc2)cc1 : growth inhibition is 2

growth inhibition measured on CC(C)NCC(O)c1ccc(O)c(O)c1.[Pt].c1ccc([PH+](c2ccccc2)c2ccccc2)cc1.c1ccc([PH+](c2ccccc2)c2ccccc2)cc1 = -26

Lab note: O=C(OCc1ccccc1)C(C(Cl)c1ccccc1)N(Cc1ccccc1)Cc1ccccc1 (centres undefined) gave growth inhibition of -1

// growth inhibition value for C/C(=N\N)C(CN1CCCCC1)C(c1ccccc1)c1c(O)c2ccccc2oc1=O (centres undefined) : 3

For record Cc1cc(N(CCCl)CCCl)ccc1CN1CCCN(Cc2ccc(N(CCCl)CCCl)cc2C)C1c1cccc(F)c1 the listed growth inhibition is 3

====

Assay: NCI Yeast Anticancer Drug Screen. Data for the cln2 rad14 strain (AID 165);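 also: 0% = growth equal to vehicle treated cultures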
Conditions: S. cerevisiae cln2 rad14 strain, at 50.0 µM, active compounds read high
Method: Growth inhibition of yeast strains with defined genetic alterations is measured as a screen for potential anti-cancer activity. Selected strains with alterations in DNA damage repair or cell cycle control were exposed to compounds and growth inhibition was measured relative to vehicle treated controls. The strain used in this assay is cln2 rad14
About 79,000 compounds went through this panel and 15% of them were active in at least one assay; those are over-represented in the sample as a whole.
Please enter t where growth inhibition is greater than or equal to 30%, and f where it is lower.

Below are worked cases with known answers.
{"COMPOUND": "C=C[C@H]1CN2CC[C@H]1C[C@@H]2[C@@H](O)c1ccnc2ccccc12", "CLASS NAME": "f"}
{"COMPOUND": "N=P(c1ccccc1)(c1ccccc1)c1ccccc1 (tested in a mixture with another compound)", "CLASS NAME": "f"}
{"COMPOUND": "CC1CC(C)CC(C)C(O)/C(C#N)=C/C=C/CC(C2CCCC2C(=O)O)OC(=O)CC(O)C(C)C1 (stereo not given)", "CLASS NAME": "t"}

Tell me whether growth inhibition is at least 30% here: CC(C)[O-].CC(C)[O-].[O-]c1cccc2cccnc12.[O-]c1cccc2cccnc12.[Ti+4]
t

====

Assay: NCI Yeast Anticancer Drug Screen. Data for the rad50 strain (AID 155);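 also: 0% = growth of vehicle-only cultures of the same strain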
Conditions: S. cerevisiae rad50 strain growth inhibition; at 50.0 µM (retest, dose inferred, filed as 5.0); active compounds read high
This is part of a sample that, as a whole, favours compounds with a hit. Of some 79,000 tested, about 15% had one in any assay.
RECORDED ENDPOINT: growth inhibition (%)
Report the figure in % without appending any unit label.

{"COMPOUND": "CC[C@@]1(O)C(=O)OCc2c1cc1n(c2=O)Cc2cc3cc4c(cc3nc2-1)OCO4", "RECORDED ENDPOINT": "growth inhibition", "READOUT NUMBER": 92}

Proceed to the following item.
Lab note: measured growth inhibition of C[As](C)SCCC(CCCCC(=O)O)S[As](C)C (stereo unspecified) was 38
